Form field: Kd (one value per entry).
Target: microRNA 21
Assay: Binding affinity to 5'-FAM/3'-DAB-labeled UGUCGGGUAGCUUAUCAGACUGAUGUUGACUGUUGAAUCUCAUGGCAACACCAGUCGAUGGGCUGUCUGACA pre-miRNA-21 (unknown origin) assessed as dissociation constant incubated for overnight by fluorescence based assay
Type: nucleic-acid assay
Answer format: numeric, nM implied, no suffix.

Ask | Missing value: Kd, microRNA 21, entry "Cc1ccc(C(=O)Nc2nc(-c3cccc(NC(=O)CCC(=O)N[C@@H](Cc4cn(C[C@H]5O[C@@H](O[C@@H]6[C@@H](O)[C@H](N)C[C@H](N)[C@H]6O[C@H]6O[C@H](CN)[C@@H](O)[C@H](O)[C@H]6N)[C@H](O)[C@@H]5O[C@H]5O[C@@H](CN)[C@@H](O)[C@H](O)[C@H]5N)nn4)C(=O)N[C@@H](Cc4c[nH]cn4)C(N)=O)c3)cs2)cc1" . Fill in?
Reply | 162

Ask | Missing value: Kd, microRNA 21, entry "NC[C@@H]1O[C@H](O[C@H]2[C@@H](O)[C@H](O[C@@H]3[C@@H](O)[C@H](N)C[C@H](N)[C@H]3O[C@H]3O[C@H](CN)[C@@H](O)[C@H](O)[C@H]3N)O[C@@H]2CO)[C@H](N)[C@@H](O)[C@@H]1O" . Fill in?
Reply | 1390

Now look at this entry.
Ask | Missing value: Kd, microRNA 21, entry "CC(=O)Nc1nc(-c2cccc(NC(=O)CCC(=O)N[C@@H](Cc3cn(C[C@H]4O[C@@H](O[C@@H]5[C@@H](O)[C@H](N)C[C@H](N)[C@H]5O[C@H]5O[C@H](CN)[C@@H](O)[C@H](O)[C@H]5N)[C@H](O)[C@@H]4O[C@H]4O[C@@H](CN)[C@@H](O)[C@H](O)[C@H]4N)nn3)C(=O)N[C@@H](C)C(N)=O)c2)cs1" . Fill in?
Reply | 133

* * *

Biological target: microRNA 21
Assay: Binding affinity to 5'-FAM/3'-DAB-labeled UGUCGGGUAGCUUAUCAGACUGAUGUUGACUGUUGAAUCUCAUGGCAACACCAGUCGAUGGGCUGUCUGACA pre-miRNA-21 (unknown origin) assessed as dissociation constant incubated for overnight in presence of double stranded 15-mer 5'-CGTTTTTATTTTTGC-3' DNA by fluorescence based assay
Type: nucleic-acid assay
readout-name: pKd
Value format note: pKd is -log10 of concentration (mol/L); just state the number.

Ask | For "NC[C@@H]1O[C@H](O[C@H]2[C@@H](O)[C@H](O[C@@H]3[C@@H](O)[C@H](N)C[C@H](N)[C@H]3O[C@H]3O[C@H](CN)[C@@H](O)[C@H](O)[C@H]3N)O[C@@H]2Cn2cc(CCC(=O)Nc3cccc(-c4csc(NC(=O)[C@@H](N)Cc5c[nH]cn5)n4)c3)nn2)[C@H](N)[C@@H](O)[C@@H]1O" , what is its reported pKd?
Reply | 6.77

Now look at this entry.
Ask | For "CC(=O)Nc1nc(-c2cccc(NC(=O)CCC(=O)N[C@@H](Cc3cn(C[C@H]4O[C@@H](O[C@@H]5[C@@H](O)[C@H](N)C[C@H](N)[C@H]5O[C@H]5O[C@H](CN)[C@@H](O)[C@H](O)[C@H]5N)[C@H](O)[C@@H]4O[C@H]4O[C@@H](CN)[C@@H](O)[C@H](O)[C@H]4N)nn3)C(=O)N[C@@H](C)C(N)=O)c2)cs1" , what is its reported pKd?
Reply | 6.73

Source: ChEMBL document CHEMBL4706761
